Measured pIC50 values are reported for all entries that follow.
assay target: 5-hydroxytryptamine receptor 1D (Sus scrofa, UniProt P79400)
Sequence (P79400 whole entry): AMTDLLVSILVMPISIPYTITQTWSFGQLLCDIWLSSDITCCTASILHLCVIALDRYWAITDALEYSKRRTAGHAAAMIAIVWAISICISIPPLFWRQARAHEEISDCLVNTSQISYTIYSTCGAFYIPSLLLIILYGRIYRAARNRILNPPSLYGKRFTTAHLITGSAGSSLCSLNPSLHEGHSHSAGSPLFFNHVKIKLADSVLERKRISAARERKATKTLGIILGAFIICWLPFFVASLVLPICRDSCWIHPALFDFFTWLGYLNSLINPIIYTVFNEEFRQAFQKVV
assay text: Displacement of radioligand [3H]5-HT binding to 5-hydroxytryptamine 1D receptor in pig caudate membrane
pIC50: −log10 of the molar value.
recorded metric: pIC50

smiles representation: CC(=O)Nc1ccc(Cc2noc(-c3ccc4[nH]cc(CCN)c4c3)n2)cc1
data value: 9.30

smiles representation: COc1ccccc1Cc1noc(-c2ccc3[nH]cc(CCN)c3c2)n1
data value: 7.80

smiles representation: NCCc1c[nH]c2ccc(-c3nc(N)no3)cc12
data value: 7.30

smiles representation: NCCc1c[nH]c2ccc(Cc3nc(N)no3)cc12
data value: 7.70

smiles representation: NCCc1c[nH]c2ccc(O)cc12
data value: 8.00

smiles representation: CN(C)CCc1c[nH]c2ccc(CCCc3nc(Cc4ccccc4)no3)cc12
data value: 7.90
